tested_system: Recombinant human his-tagged IGF R extracellular domain protein (human) (UniProt P08069)
test_description: SPR, Ab captured via anti-huIgG Fc, dissociation at pH 6

>  <binder>
VRDN-02060 (antibody, V domains shown) VH: QVQLQESGPGLVKPSETLSLTCTVSGYSITGGYLWNWIRQPPGKGLEWIGYISYHGTNNYKPSLKDRVTISRDTSKNQFSLKLSSVTAADTAVYYCARYGRVFFDYWGQGTLVTVSS VL: DIVMTQSPLSLPVTPGEPASISCRSHQSIVHSNGNTYLQWYLQKPGQSPQLLIYKVSNRLYGVPDRFSGSGSGTDFTLKISRVEAEDVGVYYCFQGSHVPWTFGQGTKVEIK

>  <unit_string>
s⁻¹

>  <koff>
6.07e-05

$$$$
>  <binder>
VRDN-02023 (antibody, V domains shown) VH: QVQLQESGPGLVKPSETLSLTCTVSGYSITGGYLWNWIRQPPGKGLEWIGYISYDGTNNYKPSLKDRVTISRDTSKNQFSLKLSSVTAADTAVYYCARYGHVFFDYWGQGTLVTVSS VL: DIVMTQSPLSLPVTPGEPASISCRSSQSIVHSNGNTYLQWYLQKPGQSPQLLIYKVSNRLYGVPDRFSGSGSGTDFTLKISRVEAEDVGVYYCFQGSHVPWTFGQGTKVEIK

>  <unit_string>
s⁻¹

>  <koff>
8.97e-05

$$$$
>  <binder>
VRDN-02047 (antibody, V domains shown) VH: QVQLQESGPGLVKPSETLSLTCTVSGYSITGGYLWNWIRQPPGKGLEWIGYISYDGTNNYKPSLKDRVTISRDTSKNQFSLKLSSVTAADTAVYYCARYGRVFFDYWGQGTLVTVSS VL: DIVMTQSPLSLPVTPGEPASISCRSSQSIVHSNGNTYLQWYLQKPGQSPQLLIYKVSHRLYGVPDRFSGSGSGTDFTLKISRVEAEDVGVYYCFQGSHVPWTFGQGTKVEIK

>  <unit_string>
s⁻¹

>  <koff>
9.84e-05

$$$$
>  <binder>
VRDN-02018 (antibody, V domains shown) VH: QVQLQESGPGLVKPSETLSLTCTVSGYSITGGYLWNWIRQPPGKGLEWIGYISYDGHNNYKPSLKDRVTISRDTSKNQFSLKLSSVTAADTAVYYCARYGRVFFDYWGQGTLVTVSS VL: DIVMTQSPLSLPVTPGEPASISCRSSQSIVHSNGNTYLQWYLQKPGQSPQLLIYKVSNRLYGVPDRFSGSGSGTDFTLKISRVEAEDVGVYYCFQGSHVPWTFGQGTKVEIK

>  <unit_string>
s⁻¹

>  <koff>
0.000108

$$$$
